- assay-explanation: protein stability index of a GFP-peptide fusion (yeast GPS) (PSI 1-4); higher = more stable; sorted into four equal gates, so the index is relative within each strain
- condition-label: doa10∆
readout-label: protein stability index
// keep it numeric: no unit symbol after the value

LYEKLKQEIMMSDLFTF [ISW2]	2.69

**Query** Please give the measured protein stability index for this sequence: ESINNVVDQLWSEISNE [RPN2]
**Result** 2.77

**Query** Please give the measured protein stability index for this sequence: YSDENDPSISNNIRQAI [RRP4]
**Result** 2.53

---

- assay-explanation: protein stability index of a GFP-peptide fusion (yeast GPS) (PSI 1-4); higher = more stable; sorted into four equal gates, so the index is relative within each strain
- condition-label: doa10∆
readout-label: protein stability index
// keep it numeric: no unit symbol after the value

Solved cases (5 shown):
PGDGSSYINVTFRAVVF [RPC25]	1.5
MKNKAETTTEEDSENPS [ITC1]	3.31
LNEITNSKVNKLNIETM [DSN1]	2.81
IIVKDKSNDSEGDFLKS [POP1]	3.06
IVPGTYIQERNPTQRPQ [RPS10A]	3.01

**Query** Please give the measured protein stability index for this sequence: KAANFIQNQSPQFNSPY [SWI1]
**Result** 1.99

**Query** Please give the measured protein stability index for this sequence: RNEVLESMDFLVLADAF [YCS4]
**Result** 2.04

**Query** Please give the measured protein stability index for this sequence: IQWYKSLLEKDIDAVNG [ISW2]
**Result** 2.73

---

- assay-explanation: protein stability index of a GFP-peptide fusion (yeast GPS) (PSI 1-4); higher = more stable; sorted into four equal gates, so the index is relative within each strain
- condition-label: doa10∆
Quick reference for protein stability index among some sequences
// keep it numeric: no unit symbol after the value

Solved cases (10 shown):
KNTELSYDFLPLSNIKA [RPN12]	3.13
QFSYLSSTLGIDLEDIK [PCI8]	2.36
IRIYDLGKKKATVDEFP [RPL10]	1.47
MVNTQQPIVTGTSVISM [PRE4]	2.1
AKGVYRPNGRKDHDLKI [POP1]	2.88
LADRDEFIQDSAARGLS [ECM29]	1.55
LKNKNFKCQEKDKGVYV [SIR2]	3.53
VSLIKKYKLISRIVEIF [YML103C/NUP188]	1.34
GSIPSLTTQFVTDKYTA [YDL088C/ASM4]	2.54
SEVANNGLIISWSNGKI [RRP42]	2.28

**Query** Please give the measured protein stability index for this sequence: AGNTTTGGGLFGSKPTG [YGL172W/NUP49]
**Result** 2.4

**Query** Please give the measured protein stability index for this sequence: SLLPYYHLTKAVKLGDL [RPN3]
**Result** 2.21

**Query** Please give the measured protein stability index for this sequence: MLKYRRLFIGDQNNKKM [SNF2]
**Result** 2.62

**Query** Please give the measured protein stability index for this sequence: NLGIPKIAYRGVKDCQE [SSN2]
**Result** 1.49

---

Quick reference for protein stability index among some sequences
- assay-explanation: protein stability index of a GFP-peptide fusion (yeast GPS) (PSI 1-4); higher = more stable; sorted into four equal gates, so the index is relative within each strain
- condition-label: ubr1∆
// keep it numeric: no unit symbol after the value

Solved cases (5 shown):
PKAVVDHINGSGKRKPT [GAL11]	2.16
SFLESVIRDSVTYTEHA [HHF1]	2.47
NSCFSDGSQQNLQQDKT [REC8]	2.88
SLFTYFREAIVATEPLL [PRP8]	1.97
EYALPKTYNKLHYCVSC [RPS26A]	1.41

**Query** Please give the measured protein stability index for this sequence: TKVNNQLIKVAVHNGDR [RPL9B]
**Result** 2.4

**Query** Please give the measured protein stability index for this sequence: NVLVTMPVAPTMEVKSF [YMR129W/POM152]
**Result** 1.46

**Query** Please give the measured protein stability index for this sequence: MIIFLKNYDATDKPFSS [CSI1]
**Result** 2.92

**Query** Please give the measured protein stability index for this sequence: QPEVAVKAAINFSNVTD [YIL149C/MLP2]
**Result** 2.55

**Query** Please give the measured protein stability index for this sequence: LSATQFTQPALTLMEKA [FAS1]
**Result** 2.58

**Query** Please give the measured protein stability index for this sequence: MSDAVTIRTRKVISNPL [RPS24A]
**Result** 2.23
